tested_target: Mitogen-activated protein kinase 14 (Homo sapiens)
Sequence (Q16539 whole entry): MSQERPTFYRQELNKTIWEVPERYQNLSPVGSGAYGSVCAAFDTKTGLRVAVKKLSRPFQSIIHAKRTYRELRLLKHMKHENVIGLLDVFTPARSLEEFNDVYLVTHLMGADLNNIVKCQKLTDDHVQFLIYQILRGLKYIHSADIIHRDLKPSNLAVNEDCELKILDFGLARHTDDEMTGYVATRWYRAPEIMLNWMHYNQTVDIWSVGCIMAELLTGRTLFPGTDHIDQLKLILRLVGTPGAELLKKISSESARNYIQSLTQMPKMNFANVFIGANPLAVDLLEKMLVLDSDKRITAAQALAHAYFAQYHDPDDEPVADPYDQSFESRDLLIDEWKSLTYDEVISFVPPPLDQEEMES
experiment_summary: Inhibition of p38 alpha (unknown origin) at 10 uM using Ser/Thr 15 as substrate incubated for 1 hr in presence of ATP by Z'-Lyte assay relative to control
readout_label: inhibition (%)

>  <smi>
O=S(=O)(NCCCNc1nccc(-c2[nH]c(-c3ccccc3)nc2-c2ccc(Cl)c(O)c2)n1)c1ccc(C(F)(F)F)cc1

>  <val>
54.3

$$$$
>  <smi>
O=S(=O)(NCCCNc1nccc(-c2[nH]c(-c3ccccc3)nc2-c2ccc(Cl)c(O)c2)n1)c1ccc(Br)cc1

>  <val>
73.7

$$$$
>  <smi>
COc1cc(-c2nc(-c3ccccc3)[nH]c2-c2ccnc(NCCCNS(=O)(=O)c3ccccc3)n2)ccc1Cl

>  <val>
58.6

$$$$
